Cited source for all entries: patent US12060349B2

- target: glucosylceramide synthase (Homo sapiens)
- Construct: Microsomes were isolated from A375 human melanoma cells; endogenous in cells
- Sequence (Q16739 1-394): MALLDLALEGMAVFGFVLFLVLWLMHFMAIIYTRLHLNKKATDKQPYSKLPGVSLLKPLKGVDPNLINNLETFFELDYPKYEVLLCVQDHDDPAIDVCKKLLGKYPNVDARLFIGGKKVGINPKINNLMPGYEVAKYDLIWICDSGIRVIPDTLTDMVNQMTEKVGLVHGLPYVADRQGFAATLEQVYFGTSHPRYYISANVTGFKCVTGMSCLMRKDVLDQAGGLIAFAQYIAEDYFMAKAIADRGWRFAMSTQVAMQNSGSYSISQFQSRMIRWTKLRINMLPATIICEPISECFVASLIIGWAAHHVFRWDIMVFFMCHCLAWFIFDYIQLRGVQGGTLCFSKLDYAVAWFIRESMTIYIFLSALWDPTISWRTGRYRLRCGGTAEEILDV
- test.method.notes: microsomal assay measuring conversion of ceramide to glucosylceramide by HPLC (GCS IC50)
- test.conditions: concentration causing 50% inhibition of glucosylceramide synthase activity
pIC50: −log10 of the molar value.
pIC50 of 8 or higher: condition met. Under 8: condition not met.

CNC(=O)c1cccc(Oc2cccc(C(C)(C)NC(=O)OC3CCN4CCC3CC4)c2)c1 (centres unmarked) : condition not met
CC1(NC(=O)C2CCN(c3cccc(-c4ccc(F)cc4)c3)CC2)CN2CCC1CC2 (centres unmarked) : condition not met

INPUT: Has CC(C)(NC(=O)OC1CCN2CCC1CC2)c1ccc(-c2ccc(CCc3c[nH]nn3)cc2)cc1 (centres unmarked) a recorded pIC50 greater than or equal to 8?
OUTPUT: condition not met

INPUT: Has CC1(NC(=O)C2CCN(c3cccc(-c4cncnc4)c3)CC2)CCN2CCC1CC2 (centres unmarked) a recorded pIC50 greater than or equal to 8?
OUTPUT: condition not met

INPUT: Has COCCCOc1ccc(-c2nc(N3CCC(C(=O)NC4(C)CN5CCC4CC5)CC3)ncc2F)cc1 (centres unmarked) a recorded pIC50 greater than or equal to 8?
OUTPUT: condition met

INPUT: Has O=C(NC1CCN2CCC1CC2)N1CCN(c2ccccc2)CC1 (centres unmarked) a recorded pIC50 greater than or equal to 8?
OUTPUT: condition not met

INPUT: Has COCCOCc1ccc(-c2cccc(N3CCC(C(=O)NC4(C)CCN5CCC4CC5)CC3)c2)cc1 (centres unmarked) a recorded pIC50 greater than or equal to 8?
OUTPUT: condition not met

INPUT: Has CC1(NC(=O)C2(F)CCN(c3nccc(COc4ccc(F)cc4)n3)CC2)CN2CCC1CC2 (centres unmarked) a recorded pIC50 greater than or equal to 8?
OUTPUT: condition met

INPUT: Has COCCOCc1ccc(-c2nc(N3CCC(F)(C(=O)NC4(C)CCN5CCC4CC5)CC3)ncc2F)cc1 (single isomer, unassigned) [Example 79] a recorded pIC50 greater than or equal to 8?
OUTPUT: condition met

INPUT: Has COCCCOc1ccc(-c2ccnc(N3CCC(F)(C(=O)NC4(C)CCN5CCC4CC5)CC3)n2)cc1 (centres unmarked) a recorded pIC50 greater than or equal to 8?
OUTPUT: condition met

INPUT: Has C[C@@H]1CN(C(=O)NC2(C)CCN3CCC2CC3)CCN1c1ncc(Oc2ccc(F)cc2)cn1 (some centres unmarked) a recorded pIC50 greater than or equal to 8?
OUTPUT: condition met

INPUT: Has COCCOc1ccc(-c2cccc(C(C)(C)NC(=O)OC3CN4CCC3CC4)c2)nc1 (centres unmarked) a recorded pIC50 greater than or equal to 8?
OUTPUT: condition not met

INPUT: Has CN(C)C(=O)c1ccc(Oc2ccc(C(C)(C)NC(=O)OC3CN4CCC3CC4)cc2)cc1 (centres unmarked) [Example 283] a recorded pIC50 greater than or equal to 8?
OUTPUT: condition not met

INPUT: Has O=C(OC1CC2CCN(CC2)C1)N1CCN(c2cccc(-c3ccccc3)c2)CC1 (centres unmarked) a recorded pIC50 greater than or equal to 8?
OUTPUT: condition not met

INPUT: Has CC1(NC(=O)N2CCN(c3ccc(-c4ccccc4)cc3)CC2)CCN2CCC1CC2 (centres unmarked) a recorded pIC50 greater than or equal to 8?
OUTPUT: condition not met

INPUT: Has CC(C)(C)CCS(=O)(=O)c1ccc(-c2ccc(C(C)(C)NC(=O)NC3(C)CN4CCC3CC4)cc2)cc1 (centres unmarked) a recorded pIC50 greater than or equal to 8?
OUTPUT: condition met

INPUT: Has C[C@H]1CN(C(=O)NC2(C)CCN3CCC2CC3)CCN1c1nccc(-c2ccccc2)n1 (single isomer, unassigned) [Example 139] a recorded pIC50 greater than or equal to 8?
OUTPUT: condition not met

INPUT: Has COCc1ccc(-c2ccnc(N3CCN(C(=O)NC4(C)CCN5CCC4CC5)CC3C(F)F)n2)cc1 (centres unmarked) a recorded pIC50 greater than or equal to 8?
OUTPUT: condition not met

INPUT: Has CC1(NC(=O)C2(F)CCN(c3nccc(-c4ccc(F)cc4)n3)CC2)CN2CCC1CC2 (centres unmarked) a recorded pIC50 greater than or equal to 8?
OUTPUT: condition met

INPUT: Has CC1(NC(=O)N2CCC(c3ccc(-c4ccccc4)cc3)CC2)CCN2CCC1CC2 (centres unmarked) a recorded pIC50 greater than or equal to 8?
OUTPUT: condition not met

INPUT: Has `CC(C)(NC(=O)N1CCN2CCC1CC2)c1ccc(-c2ccc(CN3CCOCC3)cc2)cc1` a recorded pIC50 greater than or equal to 8?
OUTPUT: condition not met

###

- Tested on: GM3 expression on the cell surface, B16 mouse melanoma cells
- test.method.notes: cell based phenotypic assay, cell surface GM3 by antibody mediated immunofluorescence, B16 (GM3 B16 IC50)
- test.conditions: Mus musculus, B16 mouse melanoma cells; 50% inhibition of GM3 expression on the cell surface; read-out: GM3 B16 IC50
Let's look at some compounds and their measured pIC50.
Here pIC50 is given on a logarithmic scale as minus log10 of the concentration in mol/L.

CC1(NC(=O)C2(F)CCN(c3nccc(OC4CCOCC4)n3)CC2)CCN2CCC1CC2 (stereo not drawn) : 6.65

Field: next compound
INPUT: Kindly state the measured pIC50 obtained for CCC1(NC(=O)NC(C)(C)C#Cc2ccc(S(=O)(=O)CCC(C)(C)C)cc2)CN2CCC1CC2 (stereo not drawn) with GM3 expression on the cell surface, B16 mouse melanoma cells.
OUTPUT: 7.14

###

- target: glucosylceramide synthase (Homo sapiens, UniProt Q16739)
- Construct: Microsomes were isolated from A375 human melanoma cells; endogenous in cells
- Sequence (Q16739 1-394): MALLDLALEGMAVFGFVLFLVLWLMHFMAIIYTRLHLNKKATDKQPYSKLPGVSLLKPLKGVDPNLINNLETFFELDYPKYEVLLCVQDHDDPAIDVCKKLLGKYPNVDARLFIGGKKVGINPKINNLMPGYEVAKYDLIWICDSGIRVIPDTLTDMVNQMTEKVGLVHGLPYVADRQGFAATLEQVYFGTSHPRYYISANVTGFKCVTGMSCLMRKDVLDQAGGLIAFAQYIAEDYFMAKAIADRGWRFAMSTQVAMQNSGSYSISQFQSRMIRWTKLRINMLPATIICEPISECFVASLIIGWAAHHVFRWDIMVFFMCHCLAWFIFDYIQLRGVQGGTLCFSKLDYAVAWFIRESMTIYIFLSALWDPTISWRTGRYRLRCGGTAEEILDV
- test.method.notes: microsomal assay measuring conversion of ceramide to glucosylceramide by HPLC (GCS IC50)
- test.conditions: concentration causing 50% inhibition of glucosylceramide synthase activity
- Description: Inhibition of glucosylceramide synthase activity for certain compounds of the invention were measured with 1) a microsomal assay that directly measures the conversion of ceramide to glucosylceramide by HPLC and 2) second, cell based, phenotypic assay that monitors cell surface expression of the downstream lipid GM3 by antibody mediated immunofluorescence. The cell based assay was performed in two different cell types, B16 and C32. Cell viability was also assessed in the second, cell-based assay. […]
Let's look at some compounds and their measured IC50.
Please respond with the number in µM and leave the unit unwritten.

CCCC1(NC(=O)NC(C)(C)c2ccc(-c3ccc(S(=O)(=O)CC4(COC)CC4)cc3)cc2)CN2CCC1CC2 (centres unmarked) : 0.021

INPUT: Look up IC50 for this compound: COCCOc1ccc(-c2cccc(C(C)(C)NC(=O)OC3CN4CCC3CC4)c2)cc1 (centres unmarked)
OUTPUT: 0.0267

INPUT: Look up IC50 for this compound: O=C(OC1CCN2CCC1CC2)N1CCN(c2cccc(-c3ccc(F)cc3)c2)CC1 (centres unmarked)
OUTPUT: 9.52

INPUT: Look up IC50 for this compound: CCC1CN(C(=O)NC2(C)CCN3CCC2CC3)CCN1c1nccc(-c2ccccc2)n1 (centres unmarked)
OUTPUT: 0.00769

INPUT: Look up IC50 for this compound: CN(C)C(=O)c1ccc(Oc2ccc(C(C)(C)NC(=O)OC3CCN4CCC3CC4)cc2)cc1 (centres unmarked)
OUTPUT: 0.437
